Record form. Attribute: EC50 (pM), PBMC IFN gamma assay, run 1. Fill in for each entry.
Target: T1, IL-18 receptor (IL-18Rα and IL-18Rβ) (UniProt Q13478 19-541; O95256 20-599, limits assumed)
T1 sequence (looked up) 1: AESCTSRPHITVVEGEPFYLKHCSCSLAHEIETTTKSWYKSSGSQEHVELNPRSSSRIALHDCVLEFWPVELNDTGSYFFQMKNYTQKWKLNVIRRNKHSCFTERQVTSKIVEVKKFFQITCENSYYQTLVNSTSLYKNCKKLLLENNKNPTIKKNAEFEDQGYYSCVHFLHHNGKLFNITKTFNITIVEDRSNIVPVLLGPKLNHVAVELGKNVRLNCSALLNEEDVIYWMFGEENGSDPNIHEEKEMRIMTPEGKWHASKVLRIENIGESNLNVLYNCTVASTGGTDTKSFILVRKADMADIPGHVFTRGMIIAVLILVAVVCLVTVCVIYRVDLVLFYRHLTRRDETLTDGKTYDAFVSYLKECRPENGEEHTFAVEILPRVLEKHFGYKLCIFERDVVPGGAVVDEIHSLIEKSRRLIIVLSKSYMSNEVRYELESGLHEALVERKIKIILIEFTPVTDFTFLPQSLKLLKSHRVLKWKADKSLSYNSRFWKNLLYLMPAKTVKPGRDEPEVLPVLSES
T1 sequence (looked up) 2: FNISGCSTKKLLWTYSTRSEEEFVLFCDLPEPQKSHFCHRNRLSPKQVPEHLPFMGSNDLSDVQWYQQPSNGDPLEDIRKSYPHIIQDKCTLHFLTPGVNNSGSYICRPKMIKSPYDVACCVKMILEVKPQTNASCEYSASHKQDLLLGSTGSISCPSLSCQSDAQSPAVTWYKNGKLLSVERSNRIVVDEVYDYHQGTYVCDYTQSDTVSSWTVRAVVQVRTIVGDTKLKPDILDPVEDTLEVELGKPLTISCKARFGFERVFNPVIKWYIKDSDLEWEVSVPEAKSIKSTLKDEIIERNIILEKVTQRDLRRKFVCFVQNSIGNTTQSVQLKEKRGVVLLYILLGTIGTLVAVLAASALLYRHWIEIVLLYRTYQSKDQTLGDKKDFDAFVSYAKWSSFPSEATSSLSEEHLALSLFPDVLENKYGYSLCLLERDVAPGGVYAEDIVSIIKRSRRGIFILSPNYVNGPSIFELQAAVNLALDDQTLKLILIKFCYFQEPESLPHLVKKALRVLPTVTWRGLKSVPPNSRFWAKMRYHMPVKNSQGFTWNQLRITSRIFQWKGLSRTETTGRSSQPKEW
Experiment: cell-based or functional assay
Quick note: number first, unit second.

Input: Form field: reported EC50 (pM), PBMC IFN gamma assay, run 1 of hIL18 (G3T, E6K, K53S, M60K) - KiH (Fc fusion) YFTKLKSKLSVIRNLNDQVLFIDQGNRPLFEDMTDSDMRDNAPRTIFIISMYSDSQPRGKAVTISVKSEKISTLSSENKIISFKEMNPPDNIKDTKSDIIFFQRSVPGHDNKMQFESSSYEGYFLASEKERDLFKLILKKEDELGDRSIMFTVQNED
Output: 90.3 pM

Input: For the binder hIL18 (G3T, E6K, K53A, M60K) - KiH (Fc fusion) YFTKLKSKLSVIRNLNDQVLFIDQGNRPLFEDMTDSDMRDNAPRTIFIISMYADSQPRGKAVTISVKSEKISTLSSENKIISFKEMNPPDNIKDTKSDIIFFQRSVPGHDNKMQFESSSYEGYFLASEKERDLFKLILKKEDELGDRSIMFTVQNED , what EC50 (pM), PBMC IFN gamma assay, run 1 is on record?
Output: 13.3 pM

Input: Consider the binder shown here: hIL18 (G3T, K53A, M60K) - KiH (Fc fusion) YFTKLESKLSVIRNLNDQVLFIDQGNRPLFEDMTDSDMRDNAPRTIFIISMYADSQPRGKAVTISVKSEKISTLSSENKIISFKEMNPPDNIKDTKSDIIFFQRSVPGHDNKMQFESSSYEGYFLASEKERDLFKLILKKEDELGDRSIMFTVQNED What is its recorded EC50 (pM), PBMC IFN gamma assay, run 1?
Output: 209 pM
